test: Compound was evaluated for area under curve when administered through oral route in rat; details: in vivo
measured metric: AUC (ng·h/mL)

[[record]]
compound = "CCc1cccc(CC)c1NC(=O)CN1C[C@H](c2ccc3c(c2)OCO3)[C@@H](C(=O)O)[C@@H]1c1ccc(OC)cc1 (stereo in doubt; 36)"
measured_metric = "AUC"
quantitative_readout = 3900


----------
Listed here: items and their measured Ratio.
target: Endothelin receptor, ET-A/ET-B (Homo sapiens) (UniProt P24530+P25101); assay: Ratio of binding affinity towards hETA to hETB; format: protein assay
Sequence (P24530 whole entry, looked up): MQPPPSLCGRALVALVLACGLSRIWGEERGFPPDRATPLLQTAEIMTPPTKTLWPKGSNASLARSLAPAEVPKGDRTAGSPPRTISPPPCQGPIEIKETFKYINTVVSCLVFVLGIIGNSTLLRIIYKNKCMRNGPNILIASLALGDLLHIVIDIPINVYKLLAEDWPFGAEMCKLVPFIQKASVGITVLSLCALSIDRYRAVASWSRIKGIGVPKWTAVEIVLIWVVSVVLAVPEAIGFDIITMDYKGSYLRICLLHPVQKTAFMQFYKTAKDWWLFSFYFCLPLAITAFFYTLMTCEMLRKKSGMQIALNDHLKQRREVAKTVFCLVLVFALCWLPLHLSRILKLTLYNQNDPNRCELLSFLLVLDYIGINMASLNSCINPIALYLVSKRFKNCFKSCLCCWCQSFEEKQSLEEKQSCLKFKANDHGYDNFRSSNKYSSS
Sequence (P25101 whole entry, looked up): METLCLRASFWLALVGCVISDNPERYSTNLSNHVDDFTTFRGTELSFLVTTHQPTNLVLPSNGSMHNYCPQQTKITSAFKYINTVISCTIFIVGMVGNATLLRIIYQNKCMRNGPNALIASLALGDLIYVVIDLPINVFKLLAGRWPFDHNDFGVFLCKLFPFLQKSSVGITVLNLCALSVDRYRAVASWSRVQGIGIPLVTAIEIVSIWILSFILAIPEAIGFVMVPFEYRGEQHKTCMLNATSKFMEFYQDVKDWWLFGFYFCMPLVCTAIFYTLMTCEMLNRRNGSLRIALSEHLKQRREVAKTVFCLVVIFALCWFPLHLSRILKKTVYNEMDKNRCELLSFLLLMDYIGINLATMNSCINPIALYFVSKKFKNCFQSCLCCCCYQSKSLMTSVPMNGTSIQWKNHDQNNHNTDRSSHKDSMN
measured metric: Ratio

[[record]]
compound = "CCc1cccc(CC)c1NC(=O)CN1C[C@H](c2ccc3c(c2)OCO3)[C@@H](C(=O)O)[C@@H]1c1ccc(OCCOC)cc1 (stereo in doubt; 39)"
system_name = "Endothelin receptor, ET-A/ET-B (Homo sapiens) (UniProt P24530+P25101)"
quantitative_readout = 4400

[[record]]
compound = "CCc1cc(C(=O)O)cc(CC)c1NC(=O)CN1C[C@H](c2ccc3c(c2)OCO3)[C@@H](C(=O)O)[C@@H]1c1ccc(OC)cc1"
system_name = "Endothelin receptor, ET-A/ET-B (Homo sapiens) (UniProt P24530+P25101)"
quantitative_readout = 19

[[record]]
compound = "CCc1cccc(CC)c1NC(=O)CN1C[C@H](c2ccc3c(c2)OCO3)[C@@H](C(=O)O)[C@@H]1c1ccc(OC)cc1 (stereo in doubt; 36)"
system_name = "Endothelin receptor, ET-A/ET-B (Homo sapiens) (UniProt P24530+P25101)"
quantitative_readout = 330

